From: ChEMBL document CHEMBL5543142

# ASSAY INFO: MRT in Sprague-Dawley rat at 5 mg/kg,iv administration measured upto 4 hrs by LC-MS/MS analysis
# Type: ADME, organism-based
# SETTINGS: in vivo
RECORDED ENDPOINT: MRT (min)

SMILES STRUCTURE: Nc1nc(/C(=N/O[C@@H](C(=O)[O-])C2CCC(F)(F)CC2)C(=O)N[C@@H]2C(=O)N3C(C(=O)O)=C(CSCCNC(=O)c4ccc(O)c(O)c4Cl)CS[C@H]23)cs1.[Na+]
QUANTITATIVE READOUT: 9.6

###

# reported MIC; entries follow
# Test system: Escherichia coli
# ASSAY INFO: Antibacterial activity against Escherichia coli NCTC-13353 assessed as inhibition of bacterial growth incubated for 18 to 20 hrs in presence of CAMHB medium by two fold serial dilution assay
# Assay type: functional
# SETTINGS: time 18-20 hrs
RECORDED ENDPOINT: MIC (µg/mL)

SMILES STRUCTURE: C[C@@](O/N=C(\C(=O)N[C@@H]1C(=O)N2C(C(=O)O)=C(CSCCNC(=O)c3ccc(O)c(O)c3Cl)CS[C@H]12)c1nc(N)sc1Cl)(C(=O)O)C(F)(F)F.O=C(O)C(F)(F)F
UNITS LABEL: µg/mL
QUANTITATIVE READOUT: 0.5
//
SMILES STRUCTURE: Nc1nc(/C(=N/O[C@H](C(=O)O)C2CCC(F)(F)CC2)C(=O)N[C@@H]2C(=O)N3C(C(=O)O)=C(CSCCNC(=O)c4ccc(O)c(O)c4Cl)CS[C@H]23)cs1.O=C(O)C(F)(F)F
UNITS LABEL: µg/mL
QUANTITATIVE READOUT: 1
//
SMILES STRUCTURE: C[C@@H](O)[C@H]1C(=O)N2C(C(=O)O)=C(S[C@@H]3CN[C@H](C(=O)N(C)C)C3)[C@H](C)[C@H]12
UNITS LABEL: µg/mL
QUANTITATIVE READOUT: 32
